So I've got a bunch of molecules here, and I need their growth inhibition values.
assay: NCI Yeast Anticancer Drug Screen. Data for the sgs1 mgt1 strain (AID 161);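 also: 0% = growth of cultures given vehicle only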; details: S. cerevisiae sgs1 mgt1 strain, at 50.0 µM (retest, dose inferred, filed as 5.0), stronger effect = higher value
This is part of a sample that, as a whole, favours compounds with a hit. Of some 79,000 tested, about 15% had one in any assay.
Numbers only, in %.

In the examples that follow, each entry is paired with its recorded growth inhibition.
Molecule	Unit abbrev	growth inhibition
OC1CCCC2CCC[N-]C12.OC1CCCC2CCC[N-]C12.[O]=[V][OH] (stereo not given)	%	98
CO[C@H](/C(C)=C/C=C/C(C)=C/c1coc(C)n1)[C@H](C)[C@H]1C[C@@H](O)[C@@]2(C)O[C@H]2/C=C/[C@@H](C)[C@@H]2C[C@@H](CC(=O)O2)C[C@H]2O[C@@H]2C(=O)O1	%	91
Cc1c2ccccc2cc2ccccc12	%	99
Cc1ccccc1C[As](C)(=O)O	%	-58

q: Name the reported growth inhibition value associated with the molecule O=[N+]([O-])c1ccc(O)c(Cl)c1
a: 44

* * *

Experiment: NCI Yeast Anticancer Drug Screen. Data for the wt2 strain (AID 169);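 also: 0% = growth of vehicle-treated yeast cultures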
Conditions: S. cerevisiae wt2 strain growth inhibition; at 33.0 µM
Experimental: Growth inhibition of yeast strains with defined genetic alterations is measured as a screen for potential anti-cancer activity. Selected strains with alterations in DNA damage repair or cell cycle control were exposed to compounds and growth inhibition was measured relative to vehicle treated controls. The strain used in this assay is wt2
About 79,000 compounds went through this panel and 15% of them were active in at least one assay; those are over-represented in the sample as a whole. Active and inactive are the calls of the source. No stated cut-off is given here; in the data, active means growth inhibition above about 70%; inactive means the rest.
Give one outcome, nothing more. List: active, inactive

Compound	Class
O=C1c2ccc3ccccc3c2CCC1N1CCCCC1 (configuration not stated)	active
C[C@]12CCC3[C@@H](CC[C@@H]4c5nonc5CC[C@]34C)C1CCC2=O (some centres not stated)	active
CN(N=O)C(=O)NNC(=O)N(C)N=O	inactive
O=C1C=C(CN(CCCl)CCCl)C(=O)C=C1CN(CCCl)CCCl	inactive
CSc1ccccc1[As](C)C	active
CC1=C(N2CC2)C(=O)c2ccccc2C1=O	inactive
O=[N+]([O-])c1ccc(-n2nc3ccc4c(no[n+]4[O-])c3[n+]2[O-])c([N+](=O)[O-])c1	inactive
CSC(=Nc1ccccc1)N(c1ccccc1)c1nc(=[N+](C)C)ss1	active

q: What call does the record list for CCC1(OC(=O)CN)C(=O)OCc2c1cc1n(c2=O)Cc2cc3ccccc3nc2-1 (configuration not stated) ?
a: active

q: Any idea what this test logged for Oc1c(Br)cc(Br)cc1Br ?
a: inactive

q: Recorded test call requested for Cc1cc(N=Nc2ccccc2C)ccc1N
a: active

q: How was COc1cccc2c1C(=O)c1c(O)c3c(c(O)c1C2=O)C[C@@](O)(C(C)=O)C[C@@H]3OC1CC(N)C(OC2CC(O)C(O)C(C)O2)C(C)O1 (some centres not stated) classified in this test?
a: inactive

q: Dear all, I need the recorded test outcome for CC1CCCN(CCc2ccccc2)CC1 (configuration not stated) , thank you.
a: inactive

q: Which outcome did this test record for the compound O=P(Oc1ccc(Cl)cc1)(Oc1ccc(Cl)cc1)N1CC1 ?
a: inactive

q: Per the records of this test, what outcome belongs to CC(=O)O/C(=C1\C[C@H]2[C@@H]3CC=C4C[C@@H](OC(C)=O)CC[C@]4(C)[C@H]3CC[C@]2(C)C1=O)C(F)(F)F ?
a: inactive

q: Given C[C@]12CC[C@H](O)CC1=CC[C@@H]1[C@@H]2CC[C@]2(C)C(=O)CC[C@@H]12 , state the outcome it received in this test.
a: inactive

q: For c1ccc2cc3n[se]nc3cc2c1 , what call appears in the results of this test?
a: inactive

* * *

assay: NCI Yeast Anticancer Drug Screen. Data for the mec2-1 strain (AID 157); details: S. cerevisiae mec2-1 strain, at 50.0 µM, stronger effect = higher value
About 79,000 compounds went through this panel and 15% of them were active in at least one assay; those are over-represented in the sample as a whole.
Observed property: growth inhibition (%)
Give bare numbers, in %.

Compound	Unit abbrev	Obs value
FC(F)(F)c1cccc(CCl)c1	%	-5.7
OC1CCCC2CCC[N-]C12.OC1CCCC2CCC[N-]C12.[O]=[V][OH] (configuration not stated)	%	90.1
CCCCN(C)CC(C(C)=O)C(c1ccccc1)c1c(O)c2ccccc2oc1=O (configuration not stated)	%	78.4
[Se]c1ncnc2nc[nH]c12	%	38.7
O=C(O)CCCc1cc(I)c(N(CCCl)CCCl)c(I)c1	%	69.1
COc1ccc(C2N(Cc3ccc(N(CCCl)CCCl)cc3C)CCCN2Cc2ccc(N(CCCl)CCCl)cc2C)cc1	%	99

For the 3 compounds below, give their growth inhibition values.
1. CC(Cl)CNC(C)C (configuration not stated)
2. CC(C)(C)C(Br)C(=O)NC(N)=O (configuration not stated)
3. CC(=O)OCC12CCC(C)=CC1OC1C3(O)N=C(C)OC3C2(C)C12CO2 (configuration not stated)

a:
[-9.4, -0.45, 69]

* * *

test: NCI Yeast Anticancer Drug Screen. Data for the mlh1 rad18 strain (AID 175); conditions: S. cerevisiae mlh1 rad18 strain growth inhibition; at 50.0 µM (retest, dose inferred, filed as 5.0)
Compounds without any hit were thinned out: in the full panel of roughly 79,000, 15% have a hit. Active and inactive are the calls of the source. Cut-off read from the data, not from the text of the source: active = growth inhibition above about 70%; inactive = the rest.
Response enum: class 1 (active), class 0 (inactive)

Consider the worked cases shown below.
Molecule	Class
CCC1(CC)C(=O)[N-]C(=O)[N-]C1=O.[Au+].[Au+].c1ccc([PH+](c2ccccc2)c2ccccc2)cc1.c1ccc([PH+](c2ccccc2)c2ccccc2)cc1	class 1
CC(C)c1cccc(C(C)C)c1NC(=O)C(=O)CC(=O)CC(c1ccccc1)c1c(O)c2ccccc2oc1=O (centres undefined)	class 0
COc1ccc(CC2C(=O)NC(C)C(=O)N(C)C3C(=O)N(C)C(Cc4ccc(O)c(c4)Oc4ccc(cc4)C3O)C(=O)NC(C)C(=O)NC(C)C(=O)N2C)cc1 (centres undefined)	class 1

q: // return assay outcome for [C-]#[O+].[C-]#[O+].[C-]#[O+].[Cl-].[Ru+2].c1ccc([PH+](CC[PH+](c2ccccc2)c2ccccc2)CC[PH+](c2ccccc2)c2ccccc2)cc1
a: class 1

* * *

test: NCI Yeast Anticancer Drug Screen. Data for the mlh1 rad18 strain (AID 175); settings: S. cerevisiae mlh1 rad18 strain growth inhibition; at 50.0 µM
The panel holds about 79,000 compounds, 15% with a hit somewhere; the sample as a whole holds those more often. Active and inactive are the calls of the source. No stated cut-off is given here; in the data, active means growth inhibition above about 70%; inactive means the rest.
Response enum: YES = active, NO = inactive

Please review the entries below; each comes with its answer.
Molecule	Class
CC(C)[O-].CC(C)[O-].[O-]c1cccc2cccnc12.[O-]c1cccc2cccnc12.[Ti+4]	NO
S=C=Nc1cccc(Cl)c1	YES
CC(=O)[O-].[Zn].c1ccc(/C(=N\Nc2ccccn2)c2ccccn2)cc1	NO

Next:
q: Which result was noted for this molecule in the test: COc1ccc(CC2C(=O)NC(C)C(=O)N(C)C3C(=O)N(C)C(Cc4ccc(O)c(c4)Oc4ccc(cc4)C3O)C(=O)NC(C)C(=O)NC(C)C(=O)N2C)cc1 (centres undefined)
a: NO

* * *

Assay: NCI Yeast Anticancer Drug Screen. Data for the wt1 strain (AID 149);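 also: 0% = growth of vehicle-treated wt1 cultures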
Conditions: S. cerevisiae wt1 strain (SPY 50644) growth inhibition; at 11.0 µM
Experimental: Growth inhibition of yeast strains with defined genetic alterations is measured as a screen for potential anti-cancer activity. Selected strains with alterations in DNA damage repair or cell cycle control were exposed to compounds and growth inhibition was measured relative to vehicle treated controls. The strain used in this assay is wt1
The panel holds about 79,000 compounds, 15% with a hit somewhere; the sample as a whole holds those more often. Calls of active or inactive are those of the source. Rule as the data show it: active = growth inhibition above about 70%; inactive = the rest.
Outcome (select one): true (active), false (inactive)

>>> df
                                   molecule  class
0                      Cn1cnc(N)c1C(=N)[Se]  false
1                             Oc1cccnc1[Se]  false
2                     Oc1cccc2nc3ccccc3nc12  false
3                   O=C(COc1ccc(Cl)cc1Cl)NO  false
4  O=C1OC2C(O1)C1(Cl)C(Cl)=C(Cl)C2(Cl)C1(Cl)Cl (configuration not stated)  false

q: Hello, I am checking results. What call was entered for CCOC(=O)C1=C(C(=O)OCC)C2(c3ccccc3)N(O1)c1ccccc1C2(C)C (configuration not stated) ?
a: false

* * *

experiment: NCI Yeast Anticancer Drug Screen. Data for the CLN2oe strain (AID 163);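 also: 0% = growth of vehicle-only control cultures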; conditions: S. cerevisiae CLN2oe strain, at 3.7 µM, stronger effect = higher value
About 79,000 compounds went through this panel and 15% of them were active in at least one assay; those are over-represented in the sample as a whole. Active and inactive are the calls of the source. Rule as the data show it: active = growth inhibition above about 70%; inactive = the rest.
I'd be grateful if you could share measured growth inhibition for these entries.

In the examples that follow, each entry is paired with its recorded growth inhibition.
Compound	Obs value
c1ccc(N=c2nc(N3CCOCC3)ss2)cc1	-13% (inactive)
C=C[C@H]1CN2CC[C@H]1C[C@@H]2[C@@H](O)c1ccnc2ccccc12	2% (inactive)
CC1CC(Br)C(=O)O1 (configuration not stated)	-44% (inactive)
COc1cccc2c1C(=O)c1c(O)c3c(c(O)c1C2=O)C[C@@](O)(C(C)=O)C[C@@H]3OC1CC(N)C(OC2CC(O)C(O)C(C)O2)C(C)O1 (some centres not stated)	-10% (inactive)
O=S(=O)(O)c1ccc(Cl)cc1.[Cd]	-17% (inactive)

// input: 3 compounds below; output: growth inhibition for each
1. Cc1ccc2c(c1N)C(=O)c1ccccc1C2=O
2. O=Cc1ccc(C(F)(F)F)cc1.[C-]#[O+].[C-]#[O+].[C-]#[O+].[Cr]
3. Nc1ccc(Cl)cc1C(=O)c1ccccc1

a:
-3% (inactive)
-2% (inactive)
-5% (inactive)
